TESTED TARGET: T1, dog serum albumin (dog, UniProt P49822 25-608)
T1 construct: Bought protein, immobilized on a CM5 chip by amine coupling; also called Dog SA
ASSAY TEXT: SPR (Biacore 8K), albumin immobilized on CM5 chip, 25 C, 1:1 kinetic fit
REPORTED ENDPOINT: Kd (nM)
Write down the numeric answer in nM and omit the unit.

Example cases with answers are listed next.
Can you share its Kd? I mean this binder: RLN Analog 1 (other) EVQLLESGGGLVQPGGSLRLSCAASGRYIDETAVAWFRQAPGKEREFVAGIGGGVDITYYADSVKGRFTISRDNSKNTLYLQMNSLRPEDTAVYYCAARPGRPLITSKVADLYPYWGQGTLVTVSSGGGGQGGGGQGGGGQGGGGQGGGGQQLYSALANKCCHVGCTKRSLARFCGGGSGGSGGGSWMEEVIKLCGRELVRAQIAICGMSTWS 1.2

Dear colleague, I am looking for the recorded Kd of the following binder: RLN Analog 12 (other, Single-chain fusion: VHH - (G4Q)5 L1 - RLN2 B chain (desB1) - L2 of thirteen residues - RLN2 A chain (desA1-4)) EVQLLESGGGLVQPGGSLRLSCAASGRYIDETAVAWFRQAPGKGREFVAGIGGGVDITYYADSVKGRFTISRDNSKNTLYLQMNSLRPEDTAVYYCAARPGRPLITSKVADLYPYWGQGTLVTVSSGGGGQGGGGQGGGGQGGGGQGGGGQSWMEEVIKLCGRELVRAQIAICGMSTWSGGGSGGSGGSGGGALANKCCHVGCTKRSLARFC 0.77

Any idea what Kd was measured for RLN Analog 3 (other, Single-chain fusion: VHH - (G4Q)5 L1 - RLN2 B chain (desB1) - L2 - RLN2 A chain) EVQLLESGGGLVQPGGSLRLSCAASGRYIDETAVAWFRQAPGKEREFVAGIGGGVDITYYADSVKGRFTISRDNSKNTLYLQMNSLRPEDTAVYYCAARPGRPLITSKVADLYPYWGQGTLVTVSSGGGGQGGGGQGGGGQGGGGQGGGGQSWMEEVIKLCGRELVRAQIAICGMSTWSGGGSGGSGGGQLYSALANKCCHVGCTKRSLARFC ? 0.7

Quick one: Kd for RLN Analog 5 (other, Single-chain fusion: RLN2 B chain (desB1) - L2 - RLN2 A chain - (G4Q)5 L1 - VHH (C-terminal)) SWMEEVIKLCGRELVRAQIAICGMSTWSGGGSGGSGGGQLYSALANKCCHVGCTKRSLARFCGGGGQGGGGQGGGGQGGGGQGGGGQEVQLLESGGGLVQPGGSLRLSCAASGRYIDETAVAWFRQAPGKEREFVAGIGGGVDITYYADSVKGRFTISRDNSKNTLYLQMNSLRPEDTAVYYCAARPGRPLITSKVADLYPYWGQGTLVTVSSPP ? 4.7

Kd for RLN Analog 11 (other, Single-chain fusion: VHH - (G4Q)5 L1 - RLN2 B chain (desB1) - L2 of thirteen residues - RLN2 A chain (desA1-4)) EVQLLESGGGLVQPGGSLRLSCAASGRYIDETAVAWFRQAPGKEREFVAGIGGGVDITYYADSVKGRFTISRDNSKNTLYLQMNSLRPEDTAVYYCAARPGRPLITSKVADLYPYWGQGTLVTVSSGGGGQGGGGQGGGGQGGGGQGGGGQSWMEEVIKLCGRELVRAQIAICGMSTWSGGGSGGSGGSGGGALANKCCHVGCTKRSLARFC ? 1.3

New cases:
Return reported Kd; argument: RLN Analog 10 (other, Single-chain fusion: RLN2 B chain (desB1) - L2 - RLN2 A chain - (PGPQ)8 L1 - VHH (C-terminal)) SWMEEVIKLCGRELVRAQIAICGMSTWSGGGSGGSGGGQLYSALANKCCHVGCTKRSLARFCPGPQPGPQPGPQPGPQPGPQPGPQPGPQPGPQEVQLLESGGGLVQPGGSLRLSCAASGRYIDETAVAWFRQAPGKGREFVAGIGGGVDITYYADSVKGRFTISRDNSKNTLYLQMNSLRPEDTAVYYCAARPGRPLITSKVADLYPYWGQGTLVTVSSPP 3.4
